assay: Drug level in Jcl-ICR mouse plasma at 100 mg/kg, ip measured at 0.5 hrs by LC/MS/MS analysis; format: ADME, organism-based
measurementLabel: concentration at 0.5 h (ng/mL)
# output: bare number, implied unit ng/mL

The reported value for Cc1cc(-n2cc(C(=O)N3CCO[C@@H](C)C3)c3ccc(O[C@@H](C)c4ccc(F)cn4)nc32)n[nH]1 in terms of concentration at 0.5 h is 26200

* * *

test: Drug level in Jcl-ICR mouse brain at 100 mg/kg, ip measured at 1 hr by LC/MS/MS analysis; type: ADME, organism-based; details: read-out: Drug uptake
measurementLabel: concentration at 1 h (ng/mL)
# output: bare number, implied unit ng/mL

The reported value for Cc1cc(-n2cc(C(=O)N3CCO[C@@H](C)C3)c3ccc(O[C@@H](C)c4ccc(F)cn4)nc32)n[nH]1 in terms of concentration at 1 h is 33400
